Reported PBM binding z-score values for a set of sequences
system: LXRb homodimer (NR concentration 270 nM); assay: PBM binding z-score (relative to random genomic background probes); higher = stronger binding; sequences stand for … in GC…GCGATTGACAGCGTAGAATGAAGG
Respond using a number only.

GGTTACGGGTCAAAGGTTATAGCATGAATAGAAT; 0.466
TCGAGTAGATTAGTCGGGGCATTCAGCCAACATA; -1.13
ACTCGGAGCACAAAGGTCAGAGCTACGCCAGTGA; 0.00562

Lookup result for TCTGTTAGTTGAAGGGCAACCGACGAGTCCGTTT ; measured PBM binding z-score: 0.983

Data point: GTACCAAGGTGAATAGGACGTTGATGAGTAGGCG ; PBM binding z-score = -0.664

Measured PBM binding z-score, CCGACTGGGGCATAATGTTACCATAAGCCAGCCC : -0.735

Notebook: TCGAGTAGGTTACCAGTGGGGCATTCAGCTTTCT , PBM binding z-score read as -0.623

// recorded PBM binding z-score for TAGCCTTGGTCAGATCGGGCCAGTATACGCTATA : -0.904

Record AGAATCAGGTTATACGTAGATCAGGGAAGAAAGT , field PBM binding z-score: 0.265

Reported PBM binding z-score ( TCATATAGGTAATACAGGAGAAAGTCGGCATCTA ) = 0.172

CCAAACAGGTGAAAGGTAACTCAGTCTGGTACGC has a reported PBM binding z-score of -0.282

So, GGAACGAGGGCAAGTTGATAGTAGAGTTTGATGG ? Its PBM binding z-score was -0.108

----------
tested on: THRa:RXRa (NR concentration 90 nM, RXRa partner concentration 90 nM); assay: PBM binding z-score (relative to random genomic background probes); higher = stronger binding; sequences stand for … in GC…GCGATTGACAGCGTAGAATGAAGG
metric name: PBM binding z-score
No unit in the answer, only the number.

# annotated cases, reported PBM binding z-score shown
CGTCCAATGTCAAGGTCAGTGAAAGAGACTCGAA; 2.91
CATACAGGGTCAGCTAGGCCAGTGTAGGGACGGC; 3.07
TTACCAAAGTGAGCTGAGGTCGTTGATCCAACTC; 3.02
CCCCGGAGGACAACAGGAGGTCAGAGCTGCCAGA; 2.94
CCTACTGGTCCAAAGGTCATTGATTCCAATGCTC; 3.31

Field PBM binding z-score (entry GCATATAGGTATTACAAGGTGAAAGTCCGATTGT ) reads 3.76

For CCTTACGGGTCACTGACAGGTTATAGGATTTGGA the sequence record lists PBM binding z-score as 2.96

Form: sequence = GCTAGTTGGTCAGTAAAAGGTCACACATCGGTCG ; PBM binding z-score = 3.54

PBM binding z-score in this record for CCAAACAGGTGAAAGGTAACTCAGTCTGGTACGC : 0.954

The sequence identified as ATCGATAGGTCGAAGGTGAGTATACCCACCCGAA registered its PBM binding z-score at 0.837

Consider TCTATTAGTTGATTAGGGGAACCGAAACAGCGGA . Its measured PBM binding z-score is 0.257

For this sequence ( CTACCAAGGTGAACAATGTCGTTGATTACTATTC ), measured PBM binding z-score is 2.04

# PBM binding z-score (sequence: CCGACTGGGGCATGAGGTTACCATAAGCCAGCCC ) is 1.89
